Target: human TDO (GL261 cells transfected to over-express full length human TDO) (Homo sapiens (Human))
Sequence (P48775 whole entry): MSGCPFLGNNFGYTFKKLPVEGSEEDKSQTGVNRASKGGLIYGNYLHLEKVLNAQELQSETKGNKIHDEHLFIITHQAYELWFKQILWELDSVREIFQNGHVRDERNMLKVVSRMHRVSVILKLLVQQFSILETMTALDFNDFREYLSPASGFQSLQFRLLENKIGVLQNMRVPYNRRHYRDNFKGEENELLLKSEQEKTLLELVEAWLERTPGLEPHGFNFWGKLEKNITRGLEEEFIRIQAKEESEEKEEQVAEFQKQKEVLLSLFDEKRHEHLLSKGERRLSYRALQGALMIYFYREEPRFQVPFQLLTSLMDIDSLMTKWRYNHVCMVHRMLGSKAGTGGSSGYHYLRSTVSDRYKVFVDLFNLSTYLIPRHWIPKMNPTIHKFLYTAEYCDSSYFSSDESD
Assay: Cell-based assay for TDO inhibition
Settings: GL261 cells over-expressing human TDO, 24 h; read-out: Cellular IC50
Description: Culture supernatant from each well was then transferred into a fresh, flat-bottomed 96-well plate, and kynurenine content was determined as described above for the IDO1 assay, and the concentration that inhibited 50% cellular enzyme activity was calculated.
pIC50: −log10 of the molar value.
measured-attribute: pIC50

Use the examples below as a reference point.
molecule	pIC50
Cc1nc2onc(N)c2c(C)c1Cl	5.00 to 6.00
Nc1noc2nc(Oc3ccc(OC(F)(F)F)cc3)ccc12	4.00 to 5.00
Nc1noc2nc(Cl)c(F)cc12	> 6.00

Pending molecule:
// Input: Nc1noc2nc(Cl)ccc12 [Compound 11, 6-Chloroisoxazolo[5,4-b]pyridin-3-amine] . Output its pIC50 only. > 6.00

====

Target: human IDO1 (LLTC-hIDO1 cells) (Homo sapiens)
Assay: Cell-based assay for IDO1 inhibition (kynurenine in supernatant)
Settings: IDO1-transfected Lewis Lung carcinoma cells, 24 h; read-out: Cellular IC50
pIC50: −log10 of the molar value.
Collected pIC50 values appear next to each entry.

// Input: Nc1noc2nc(-c3ccccc3)ccc12 [Compound 15, 6-Phenylisoxazolo[5,4-b]pyridin-3-amine] . Output its pIC50 only. 5.00 to 6.00

// Input: Nc1noc2nc(Cl)c(Cl)cc12 . Output its pIC50 only. 5.00 to 6.00

// Input: CCOC(=O)c1cc2c(N)noc2nc1C(F)(F)F . Output its pIC50 only. 4.00 to 5.00

// Input: Nc1noc2nc(-c3cccs3)ccc12 . Output its pIC50 only. 5.00 to 6.00

// Input: COCC#Cc1cnc2onc(N)c2c1 . Output its pIC50 only. 4.00 to 5.00

// Input: Nc1noc2nc(NC3CC3)c(F)cc12 . Output its pIC50 only. < 4.00

// Input: Cc1cnc2onc(N)c2c1 [Compound 44, 5-Methylisoxazolo[5,4-b]pyridin-3-amine] . Output its pIC50 only. 4.00 to 5.00

====

Target: human IDO1 (LLTC-hIDO1 cells) (Homo sapiens, UniProt P14902)
Assay: Cell-based assay for IDO1 inhibition (kynurenine in supernatant)
Settings: IDO1-transfected Lewis Lung carcinoma cells, 24 h; read-out: Cellular IC50
Collected IC50 values appear next to each entry.

compound	IC50
Nc1noc2nc(OCCN3CCOCC3)ccc12	> 100 µM
Nc1noc2ncc([N+](=O)[O-])cc12 [Compound 49, 5-Nitroisoxazolo[5,4-b]pyridin-3-amine]	< 1 µM
Nc1noc2nc(-c3ccc(Cl)cc3Cl)ccc12	> 100 µM
Nc1noc2nc3c(cc12)CCC3	> 100 µM
Nc1noc2nc(Oc3ccccc3OC(F)(F)F)ccc12	10 to 100 µM
Cc1nc2onc(N)c2c(C)c1OC(F)F	10 to 100 µM
Cc1nc2onc(N)c2c(C)c1Br	< 1 µM
Nc1noc2nc(Oc3ccccc3Cl)ccc12	10 to 100 µM

// Input: Nc1noc2nc(C(=O)O)ccc12 . Output its IC50 only. > 100 µM

// Input: CN(C)c1nc2onc(N)c2cc1F . Output its IC50 only. > 100 µM

// Input: CNc1noc2nc(C)c(Cl)c(C)c12 . Output its IC50 only. 10 to 100 µM

// Input: Nc1noc2nc3c(cc12)CCCC3 . Output its IC50 only. 1 to 10 µM

// Input: Cc1nc2onc(N)c2c(C)c1Cl . Output its IC50 only. < 1 µM

====

Biological target: Recombinant human IDO1 (rhIDO1) (Homo sapiens (Human), UniProt P14902)
Sequence (P14902 whole entry): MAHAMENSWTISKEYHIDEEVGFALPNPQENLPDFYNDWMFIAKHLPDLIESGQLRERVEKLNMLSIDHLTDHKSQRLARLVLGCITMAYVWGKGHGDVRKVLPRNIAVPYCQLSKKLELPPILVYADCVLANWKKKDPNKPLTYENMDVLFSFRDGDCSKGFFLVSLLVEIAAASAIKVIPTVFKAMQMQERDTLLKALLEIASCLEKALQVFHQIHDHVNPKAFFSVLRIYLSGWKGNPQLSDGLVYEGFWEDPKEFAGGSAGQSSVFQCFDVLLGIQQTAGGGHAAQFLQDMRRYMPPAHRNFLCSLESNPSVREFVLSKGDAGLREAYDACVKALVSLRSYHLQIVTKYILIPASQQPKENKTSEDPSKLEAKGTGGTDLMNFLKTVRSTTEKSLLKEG
Test: Enzymatic assay for IDO1 activity
Settings: rhIDO1 9 nM, 80 μM TRP, 37° C. 30 min
Collected IC50 values appear next to each entry.

Use the examples below as a reference point.
molecule	IC50
CN(C)CCOc1ccc2c(N)noc2n1 [Compound 77]	> 100 µM
Cc1nc2onc(N)c2c(C)c1Br [Compound 1]	1 to 10 µM
COc1ccc(-c2ccc3c(N)noc3n2)cc1 [Compound 70]	> 100 µM
Cc1ccc2c(N)noc2n1 [Compound 7, 6-Methylisoxazolo[5,4-b]pyridin-3-amine]	> 100 µM
Nc1noc2nc(-c3ccccc3)ccc12 [Compound 15, 6-Phenylisoxazolo[5,4-b]pyridin-3-amine]	> 100 µM
Cc1nc2onc(N)c2c(C)c1C [Compound 5]	10 to 100 µM
Nc1noc2nc(C(=O)O)ccc12 [Compound 81]	> 100 µM
COC(=O)c1ccc2c(N)noc2n1 [Compound 82]	> 100 µM
COc1cccc(Oc2ccc3c(N)noc3n2)c1 [Compound 91]	> 100 µM

// Input: Nc1noc2nc(OCCN3CCOCC3)ccc12 [Compound 78] . Output its IC50 only. > 100 µM

====

Target: Recombinant human IDO1 (rhIDO1) (Homo sapiens (Human))
Assay: Enzymatic assay for IDO1 activity
Conditions: rhIDO1 9 nM, 80 μM TRP, 37° C. 30 min
measured-attribute: IC50

Use the examples below as a reference point.
compound	IC50
Nc1noc2nc(-c3ccco3)ccc12	> 100 µM
Nc1noc2nc(-c3cccs3)ccc12	> 100 µM
Nc1noc2ncc([N+](=O)[O-])cc12 [Compound 49, 5-Nitroisoxazolo[5,4-b]pyridin-3-amine]	1 to 10 µM
CCOC(=O)c1cc2c(N)noc2nc1C(F)(F)F	10 to 100 µM
CCOC(=O)c1cc2c(N)noc2nc1C(F)F	> 100 µM
Cc1cc2c(N)noc2nc1C	> 100 µM

Using Recombinant human IDO1 (rhIDO1) (Homo sapiens (Human)) as the test system, report measured IC50 of Nc1noc2nc(Oc3ccccc3OC(F)(F)F)ccc12 . > 100 µM

Using Recombinant human IDO1 (rhIDO1) (Homo sapiens (Human)) as the test system, report measured IC50 of Cc1ncc2c(N)noc2n1 . > 100 µM

Using Recombinant human IDO1 (rhIDO1) (Homo sapiens (Human)) as the test system, report measured IC50 of Nc1noc2nc(Oc3ccc(OC(F)(F)F)cc3)ccc12 . > 100 µM

Using Recombinant human IDO1 (rhIDO1) (Homo sapiens (Human)) as the test system, report measured IC50 of Nc1noc2nc(-c3ccc(F)cc3)ccc12 . > 100 µM

Using Recombinant human IDO1 (rhIDO1) (Homo sapiens (Human)) as the test system, report measured IC50 of CN(C)c1ccc2c(N)noc2n1 . > 100 µM

====

Tested on: Lewis Lung carcinoma cells transfected to express IDO1 (LLTC-hIDO1)
Experiment: MTT cell viability in the cellular IDO1 assay
Assay type: cell-based
Conditions: same experiment as cellular IDO1 assay
Collected IC50 values appear next to each entry.

Use the examples below as a reference point.
compound	experimental-value
Cc1cc(Cl)nc2onc(N)c12 [Compound 42]	> 100 µM
CN(C)CCCOc1ccc2c(N)noc2n1 [Compound 76]	> 100 µM
Nc1noc2nc3c(cc12)CCC3 [Compound 59]	> 100 µM
Nc1noc2ncc([N+](=O)[O-])cc12 [Compound 49, 5-Nitroisoxazolo[5,4-b]pyridin-3-amine]	> 100 µM
CCOC(=O)c1cc2c(N)noc2nc1C(F)F [Compound 54]	> 100 µM

// Input: Nc1noc2nc3ccccc3cc12 [Compound 9, Isoxazolo[5,4-b]quinolin-3-amine] . Output its IC50 only. > 100 µM

// Input: Cc1ncc2c(N)noc2n1 [Compound 64] . Output its IC50 only. > 100 µM

// Input: Nc1noc2nc(C(=O)O)ccc12 [Compound 81] . Output its IC50 only. > 100 µM

// Input: COc1ccc(Nc2ccc3c(N)noc3n2)cc1 [Compound 96] . Output its IC50 only. > 100 µM

// Input: Nc1noc2nc(OCCN3CCOCC3)ccc12 [Compound 78] . Output its IC50 only. > 100 µM

====

Collected pIC50 values appear next to each entry.
Biological target: human IDO1 (LLTC-hIDO1 cells) (Homo sapiens, UniProt P14902)
Test: Cell-based assay for IDO1 inhibition (kynurenine in supernatant)
Details: IDO1-transfected Lewis Lung carcinoma cells, 24 h; read-out: Cellular IC50
pIC50: −log10 of the molar value.

Use the examples below as a reference point.
compound	pIC50
CSc1nc(-c2ccccc2)nc2onc(N)c12 [Compound 65]	< 4.00
CCOC(=O)c1cc2c(N)noc2nc1C(F)F [Compound 54]	4.00 to 5.00
Cc1cc(C(F)(F)F)c2c(N)noc2n1 [Compound 46]	4.00 to 5.00
Nc1noc2nc3ccccc3cc12 [Compound 9, Isoxazolo[5,4-b]quinolin-3-amine]	5.00 to 6.00

// Input: Cn1nccc1-c1ccc2c(N)noc2n1 [Compound 75] . Output its pIC50 only. < 4.00

====

Molecular target: Recombinant human IDO1 (rhIDO1) (Homo sapiens (Human), UniProt P14902)
Experiment: Enzymatic assay for IDO1 activity
Conditions: rhIDO1 9 nM, 80 μM TRP, 37° C. 30 min
measured-attribute: IC50

molecule	IC50
Nc1noc2nc(Oc3ccccc3Cl)ccc12	10 to 100 µM
Cc1cc(C(F)(F)F)c2c(N)noc2n1	> 100 µM
Nc1noc2nc(Oc3cccc(C(F)(F)F)c3)ccc12	> 100 µM
COc1ccccc1Oc1ccc2c(N)noc2n1	> 100 µM
Nc1noc2ncc(-c3ccccc3O)cc12	> 100 µM

// Input: Nc1noc2ncc(Br)cc12 [Compound 6, 5-Bromoisoxazolo[5,4-b]pyridin-3-amine] . Output its IC50 only. 10 to 100 µM

// Input: Nc1noc2nc(-c3ccc(Cl)cc3Cl)ccc12 . Output its IC50 only. > 100 µM

// Input: Nc1noc2nc(Oc3ccccc3)ccc12 [Compound 83, 6-Phenoxyisoxazolo[5,4-b]pyridin-3-amine] . Output its IC50 only. > 100 µM

// Input: Nc1noc2ccncc12 [Compound 17, Isoxazolo[4,5-c]pyridin-3-amine] . Output its IC50 only. > 100 µM

// Input: Nc1noc2nc(Cl)c(F)cc12 . Output its IC50 only. < 1 µM

Every entry's value here was drawn from patent US10888567B2.
